tested.target: Voltage-dependent T-type calcium channel subunit alpha-1H (Homo sapiens) (UniProt O95180)
Sequence (O95180 whole entry, looked up): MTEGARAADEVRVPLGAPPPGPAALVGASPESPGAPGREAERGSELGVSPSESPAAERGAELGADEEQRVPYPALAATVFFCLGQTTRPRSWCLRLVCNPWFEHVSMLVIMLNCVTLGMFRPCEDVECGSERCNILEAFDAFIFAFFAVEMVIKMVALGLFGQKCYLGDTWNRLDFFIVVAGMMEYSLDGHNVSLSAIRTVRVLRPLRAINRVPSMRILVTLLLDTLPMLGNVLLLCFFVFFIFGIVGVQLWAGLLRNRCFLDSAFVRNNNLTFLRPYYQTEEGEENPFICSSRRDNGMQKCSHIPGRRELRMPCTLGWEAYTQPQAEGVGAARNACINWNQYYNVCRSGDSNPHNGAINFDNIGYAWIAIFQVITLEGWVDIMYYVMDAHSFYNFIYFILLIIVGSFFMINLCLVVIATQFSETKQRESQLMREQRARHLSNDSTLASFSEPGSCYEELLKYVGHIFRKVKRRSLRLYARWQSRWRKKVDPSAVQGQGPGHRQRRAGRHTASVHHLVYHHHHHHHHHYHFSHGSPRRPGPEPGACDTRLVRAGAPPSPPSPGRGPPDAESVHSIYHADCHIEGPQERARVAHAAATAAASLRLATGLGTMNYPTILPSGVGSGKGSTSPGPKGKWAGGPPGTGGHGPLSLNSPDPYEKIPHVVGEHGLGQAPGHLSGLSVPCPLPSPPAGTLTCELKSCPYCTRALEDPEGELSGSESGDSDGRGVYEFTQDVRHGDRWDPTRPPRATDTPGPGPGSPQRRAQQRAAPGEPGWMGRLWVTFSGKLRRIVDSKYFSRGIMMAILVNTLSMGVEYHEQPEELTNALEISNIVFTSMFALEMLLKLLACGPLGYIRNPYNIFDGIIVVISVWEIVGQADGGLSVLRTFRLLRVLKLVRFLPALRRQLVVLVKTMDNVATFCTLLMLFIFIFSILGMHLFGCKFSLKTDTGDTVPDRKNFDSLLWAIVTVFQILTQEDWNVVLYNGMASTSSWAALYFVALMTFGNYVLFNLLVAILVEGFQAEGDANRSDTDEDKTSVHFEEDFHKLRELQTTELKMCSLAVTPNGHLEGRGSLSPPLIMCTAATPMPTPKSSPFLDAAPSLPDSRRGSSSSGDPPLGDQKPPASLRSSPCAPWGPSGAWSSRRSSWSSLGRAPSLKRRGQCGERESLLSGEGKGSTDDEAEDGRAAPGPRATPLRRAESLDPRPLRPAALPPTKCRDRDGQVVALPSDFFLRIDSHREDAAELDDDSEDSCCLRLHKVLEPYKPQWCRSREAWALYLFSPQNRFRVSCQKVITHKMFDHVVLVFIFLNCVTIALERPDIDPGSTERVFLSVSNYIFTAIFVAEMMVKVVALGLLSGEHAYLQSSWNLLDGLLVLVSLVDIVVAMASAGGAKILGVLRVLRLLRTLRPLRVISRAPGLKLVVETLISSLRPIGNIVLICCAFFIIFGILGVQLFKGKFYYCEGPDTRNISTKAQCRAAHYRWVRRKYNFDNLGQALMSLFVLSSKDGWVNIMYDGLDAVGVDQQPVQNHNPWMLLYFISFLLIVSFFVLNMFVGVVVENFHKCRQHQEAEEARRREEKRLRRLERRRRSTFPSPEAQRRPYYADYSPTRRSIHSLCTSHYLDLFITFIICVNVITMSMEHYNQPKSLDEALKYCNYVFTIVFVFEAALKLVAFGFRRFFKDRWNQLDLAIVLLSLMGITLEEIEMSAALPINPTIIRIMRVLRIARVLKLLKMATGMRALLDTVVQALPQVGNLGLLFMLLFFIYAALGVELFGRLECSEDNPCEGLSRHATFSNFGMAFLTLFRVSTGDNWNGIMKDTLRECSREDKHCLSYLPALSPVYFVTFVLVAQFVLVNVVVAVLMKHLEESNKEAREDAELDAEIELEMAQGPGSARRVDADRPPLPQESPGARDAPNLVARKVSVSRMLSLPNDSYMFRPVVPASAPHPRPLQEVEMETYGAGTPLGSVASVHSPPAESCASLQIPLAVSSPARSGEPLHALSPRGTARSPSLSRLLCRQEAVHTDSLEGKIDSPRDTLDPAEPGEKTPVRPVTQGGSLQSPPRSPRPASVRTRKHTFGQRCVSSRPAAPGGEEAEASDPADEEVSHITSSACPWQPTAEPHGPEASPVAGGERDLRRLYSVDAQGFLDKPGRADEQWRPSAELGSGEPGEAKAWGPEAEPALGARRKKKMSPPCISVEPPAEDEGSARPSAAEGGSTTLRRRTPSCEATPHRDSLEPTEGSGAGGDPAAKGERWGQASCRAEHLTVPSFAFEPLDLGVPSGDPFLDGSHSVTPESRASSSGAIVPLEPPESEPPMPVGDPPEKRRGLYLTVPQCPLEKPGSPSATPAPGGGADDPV
test.method.notes: Cav3.2 calcium influx blockers – cell-based, Fluo-4 calcium fluorescence, FDSS, MLSMR library, primary screen (AID 449739)
condition.summary: Cav3.2-expressing cells, at 10 µM
The campaign covered roughly 100,000 compounds. About 4,200 (4.2%) were called active.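 How the source made its calls: active means single-dose well whose peak fluorescence ratio is a statistical outlier from its plate by either plate-standardised score or position-corrected B-score; inactive means the rest.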 What follows is part of a selection rich in actives, with near analogues and random picks from the rest.
Outcomes: active, inactive

compound	answer.label
CCN1CCN(C(=O)/C=C\C(=O)O)CC1	inactive
Cc1ccc(N(CC(=O)Nc2cccc(N(C)S(C)(=O)=O)c2)S(C)(=O)=O)cc1	inactive
Cc1ccc(C)c(CSc2nc(-c3ccco3)nc3c2c(=O)n(C)c(=O)n3C)c1	inactive
N#Cc1c(NC(=O)CSc2nc3ccccc3c(=O)n2Cc2ccco2)sc2c1CCCC2	active
C=C(C)Cn1c(SCC(=O)NCc2ccco2)nc2sc3c(c2c1=O)CCC3	inactive
O=C(CCn1c(=O)[nH]c2ccccc2c1=O)NCCCN1CCN(c2cccc(Cl)c2)CC1	active
Cc1ccc(-c2cc(=O)c3ccc(Cl)cc3[nH]2)cc1	inactive
CCOC(=O)C(C)Sc1nc2ccccc2c(=O)n1CC1CCCCC1 (stereo not given)	inactive
O=C(NC1=NCCS1)[C@H](Cc1ccccc1)N1C(=O)c2ccccc2C1=O	inactive
Cc1[nH]n(-c2cccc(Cl)c2)c(=O)c1-c1ccc(Cl)cc1	active

====

tested.target: Voltage-dependent T-type calcium channel subunit alpha-1H (Homo sapiens) (UniProt O95180)
test.method.notes: Cav3.2 calcium influx blockers – cell-based, Fluo-4 calcium fluorescence, FDSS, MLSMR library, primary screen (AID 449739)
condition.summary: Cav3.2-expressing cells, at 10 µM
Out of some 100,000 compounds screened, about 4,200 (4.2%) were called active.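 The calls were made as follows: active = single-dose well whose peak fluorescence ratio is a statistical outlier from its plate by either plate-standardised score or position-corrected B-score; inactive = the rest.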 The sample as a whole holds a higher share of actives than the screen did.
Outcomes: yes = active, no = inactive

molecule	tested.target	answer.label
COc1cccc2c1OCC(C(=O)NCc1ccc(Cl)cc1Cl)=C2	Voltage-dependent T-type calcium channel subunit alpha-1H (Homo sapiens) (UniProt O95180)	no
COCOc1cc(O)c(C(=O)/C=C/c2ccc(OCOC)c(OCOC)c2)c(OCOC)c1	Voltage-dependent T-type calcium channel subunit alpha-1H (Homo sapiens) (UniProt O95180)	no
CC(C)CC(=O)N/C(N)=N/c1nc2ccccc2s1	Voltage-dependent T-type calcium channel subunit alpha-1H (Homo sapiens) (UniProt O95180)	yes
C=C(C)C(=O)Nc1cccc(C2=NOC3(C2)C[C@H](C(N)=O)N(C(=O)C(c2ccccc2)c2ccccc2)C3)c1 (some centres undefined)	Voltage-dependent T-type calcium channel subunit alpha-1H (Homo sapiens) (UniProt O95180)	no
COCCNC(=O)c1onc(CSc2cccc(C)c2)c1C(=O)O	Voltage-dependent T-type calcium channel subunit alpha-1H (Homo sapiens) (UniProt O95180)	no
COP1(=O)C[C@@H](O)[C@@H](O)[C@@H](COCc2ccccc2)O1 (some centres undefined)	Voltage-dependent T-type calcium channel subunit alpha-1H (Homo sapiens) (UniProt O95180)	no
CCC(=O)NC(=Nc1nc2ccccc2s1)NC(=O)CC	Voltage-dependent T-type calcium channel subunit alpha-1H (Homo sapiens) (UniProt O95180)	no
CCCCNC(=S)NNC(=O)c1cc(C)on1	Voltage-dependent T-type calcium channel subunit alpha-1H (Homo sapiens) (UniProt O95180)	no
O=C(CSc1ncnc2c1cnn2CCc1ccccc1)Nc1ccc(F)cc1	Voltage-dependent T-type calcium channel subunit alpha-1H (Homo sapiens) (UniProt O95180)	no

These entries and their values trace back to PubChem BioAssay AID449739.
